Provide the recorded TGI for the entries that follow.
System: DU-145 prostate
Experiment: NCI tumour cell line growth inhibition, 48 h

Enter TGI (test system DU-145 prostate) for NNC(=O)c1cc(Cl)ccc1NC(=O)C12CC3CC(CC(C3)C1)C2 > 100 µM

Report TGI on DU-145 prostate for this entry: Nc1nc2cc(COc3ccc(C(=O)O)cc3)ccc2nc1-c1ccccc1 > 10 µM

State the measured TGI (DU-145 prostate) of Fc1nc(-c2c3ccccc3c3sc4ccccc4n23)nc(N2CCOCCOCCOCCOCC2)n1 > 100 µM

Fetch value of TGI on DU-145 prostate for CCCCCCCCC#CCCCCCCC(F)C(=O)O (stereo not drawn) . > 100 µM

Provide TGI, system DU-145 prostate, entry ON[C@@H]1C=C[C@H](n2cnc3c(NC4CC4)ncnc32)C1 > 100 µM

Param request: TGI | system DU-145 prostate | item CC(=O)OC1C(C)OC(Oc2c(-c3ccc(O)cc3)oc3cc(O)cc(O)c3c2=O)C(O)C1OC(C)=O (stereo not drawn) > 94.1 µM

Provide DU-145 prostate TGI reading for CC(C)CC1C(=O)OC(C)(C)OC1=O . > 100 µM

Look up and report measured TGI (DU-145 prostate) for the following molecule: CC1=NN(c2nc(N)nc(CCl)n2)C(C)(C)C1 > 100 µM

Provide DU-145 prostate TGI reading for COc1cnc2oc3ccc(O)cc3c2c1-c1ccccc1 . > 100 µM

Determine reported TGI for CN1CC[C@@]2(c3cccc(O)c3)CC(=O)/C(=C/c3ccc(Cl)c(Cl)c3)[C@H]1C2 ; test system: DU-145 prostate. 16.4 µM

Under DU-145 prostate, report TGI for CCCCCCCCCCCC(=O)OCC(O)CO (stereo not drawn) > 100 µM

Recall the reported TGI of COc1cccc(/C=C2\COc3ccc(O)c(O)c3C2=O)c1OC when tested on DU-145 prostate. 10.4 µM

# return TGI of CN(COC(=O)C(C)(C)C)c1nc(N(C)COC(=O)C(C)(C)C)nc(N(C)COC(=O)C(C)(C)C)n1 (system: DU-145 prostate) > 100 µM

Please report the measured TGI for O=c1c2cc([N+](=O)[O-])ccc2[nH]n1Cc1ccccc1Cl tested on DU-145 prostate. > 100 µM

Give the observed TGI of CCOC(=O)c1c(C)n(Cc2ccc(Cl)cc2Cl)c2c1cc(O)c1[nH]c(Cc3ccccc3)nc12 for DU-145 prostate. 8.66 µM

Give the observed TGI of CCOP(=O)(OCC)/C(C#N)=C/c1cccn1C for DU-145 prostate. > 100 µM

Recall the reported TGI of O=C(O)CNc1ncc2c(n1)-c1ccccc1OC2 on DU-145 prostate and write it down. > 100 µM

For DU-145 prostate, give TGI of the listed molecule: CC1=CC(=O)c2ccc3c4ccccc4n(C)c3c2C1=O > 100 µM

Give TGI for this entry on DU-145 prostate: CC(C)(C)c1ccc(OCCCCCCCN2CCNCC2)cc1 3.37 µM

State recorded TGI with DU-145 prostate, entry C=C1C(=O)OC2/C=C(CO)/C=C\C3OC3(C)CC(OC(=O)/C(C)=C/COC(C)=O)C12 (stereo not drawn) , no comment. 30.2 µM

Specify TGI for COc1ccc(C(=O)c2[nH]c(Nc3cc(C)ccn3)c(C(=S)Nc3ccccc3)c2N)cc1 , system DU-145 prostate. > 100 µM

Enter recorded TGI with DU-145 prostate for C=CCNC(=S)NC=C(C(N)=O)C(N)=O here. > 100 µM

Report TGI on DU-145 prostate for this entry: C=CCn1c(C)nc2cc(Nc3nc(N4CCCC4)nc4nc[nH]c34)ccc21 > 100 µM

Hey, just so you know, these numbers are from PubChem BioAssay (NCI).
